- measurement target: T1, human soluble ULBP2 (hULBP2) (human, UniProt Q9BZM5 26-216)
- T1 construct: also called sULBP2
- T1 sequence: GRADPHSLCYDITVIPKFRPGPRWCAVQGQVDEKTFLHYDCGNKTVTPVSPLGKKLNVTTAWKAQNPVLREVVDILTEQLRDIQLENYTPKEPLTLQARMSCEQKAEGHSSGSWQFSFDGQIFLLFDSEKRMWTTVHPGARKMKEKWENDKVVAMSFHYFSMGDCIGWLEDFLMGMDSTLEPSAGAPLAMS
- assay summary: SPR (BIACORE 8K, 37 C); antibody captured on Protein A, soluble ULBP injected;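 further: ligand injected as threefold dilution series in HBS-P (highest 10 or 50 nM), reference-cell and buffer-subtracted sensorgrams fitted with a 1:1 Langmuir model for on and off rates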
observation type: kon (M⁻¹ s⁻¹)

{"binder": "humanized 7B3 (h7B3), Fc version not stated (antibody, V domains shown, Recombinant humanized antibody, hIgG1 backbone with kappa light chain; also called hu7B3; PUR3922) VH: EVQLVESGGGLVQPGGSLRLSCAASGFTFSTYGFHWVRQAPGKGLEWVAYISSNSGTIDYADTVKGRFTISRDNAKNSLYLQMNSLRAEDTAVYYCARQGYGFDNWGQGTTVTVSS VL: DIQLTQSPSSLSASVGDRVTITCSASSRVSYMNWYQQKPGKSPKIWVYGISNLASGVPSRFSGSGSGTDFTFTISSLQPEDIATYYCQQRSSHPLTFGGGTKVEIK", "recorded number": 753000}
{"binder": "humanized 8E11 (h8E11), Fc version not stated (antibody, V domains shown, Recombinant humanized antibody, hIgG1 backbone with kappa light chain; also called PUR3926) VH: EVQLVESGGGLVQPGGSLRLSCAASGFTFRTYGMHWVRQAPGKGLEWVAYISSGSGTIDYADTVKGRFTISRDNAKNSLYLQMNSLRAEDTAVYYCTRQTGAMDYWGQGTLVTVSS VL: EIVLTQSPATLSLSPGERATLSCSASSSVSYMNWYQQKPGQSPRLWIYGISNLASGVPARFSGSGSGTDFTLTISSLEPEDFAVYYCQQRSSHPLTFGGGTKVEIK", "recorded number": 819000}
{"binder": "humanized 1D4 (h1D4), Fc version not stated (antibody, V domains shown, Recombinant humanized antibody, hIgG1 backbone with kappa light chain; also called hiD4; hu1D4) VH: EIQLVQSGSELKKPGASVKVSCKASGYTFTEYPIHWVRQAPGQGFEWMGMIYTDTGEPTHAEEFKGRFVFSLDTSVSTAYLQISSLKAEDTAVYFCVRWYDGSSYIMDYWGQGTTVTVSS VL: DIQMTQSPSSLSASVGDRVTITCKASQDINSYLSWFQQKPGKSPKTLIYRANRLVDGVPSRFSGSGSGQDYTFTISSLQPEDIATYYCLQYDEFPLTFGGGTKVEIK", "recorded number": "2.31e+06"}
{"binder": "humanized 6E1 (h6E1), Fc version not stated (antibody, V domains shown, Recombinant humanized antibody, hIgG1 backbone with kappa light chain; also called hu6E1; PUR3993) VH: EVQLVQSGAEVKKPGASVKVSCKASGYTFTNYWMHWMRQAPGQGLEWLGRIHPSDSDTNYNQKFKGRATLTVDKSISTAYMELSRLRSDDTAVYYCAIEGTGKGYFDVWGRGTLVTVSS VL: DIQMTQSPSSLSASVGDRVTITCKASQDIYSYLSWFQQKPGKSPKTLIYRANRLVDGVPSRFSGSGSGQDFTLTISSLQPEDFATYYCLHYDEFPLTFGGGTKVEIK", "recorded number": "3.62e+06"}

Data origin: patent US20250084172A1
